# assay overview: Human Hepatocyte Stability (Test D)
# Format: in vitro ADME
# measurement context: human, cryopreserved pooled human hepatocytes (LiverPool 10-Donor), geometric mean if run multiple times
property measured: hepatocyte CLint at 1 µM (µL/min/1e6 cells)

compound	unit abbrev	hepatocyte CLint at 1 µM
COc1cc(F)c(-c2ccc(CCC(=O)O)cn2)cc1C(=O)N[C@@H]1[C@H]2CC[C@H](C2)[C@@H]1C(=O)Nc1cccc(S(=O)(=O)C(F)(F)F)c1	µL/min/1e6 cells	26
COc1cc(F)c(O[C@H]2CC[C@@](C)(C(=O)O)CC2)cc1C(=O)N[C@@H]1[C@H]2CC[C@H](C2)[C@@H]1C(=O)NC(C(C)C)C(C)C	µL/min/1e6 cells	30
COc1cc(F)c(OC2CCC(C)(C(=O)O)CC2)cc1C(=O)NC1C2CCC(CC2)C1C(=O)NCC1(C)CCC1 (single isomer, unassigned)	µL/min/1e6 cells	32
COc1cc(F)c(O[C@H]2C[C@@H](C(=O)O)C2)cc1C(=O)NC1[C@H]2CC[C@H](C2)[C@@H]1C(=O)Nc1cccc(S(=O)(=O)C(F)(F)F)c1 (stereo partly drawn)	µL/min/1e6 cells	15
CC1(CNC(=O)[C@H]2[C@@H]3CC[C@@H](C3)[C@H]2NC(=O)c2cc(O[C@H]3CC[C@@](C)(C(=O)O)CC3)c(C#N)cc2F)CCC1	µL/min/1e6 cells	5.4
COc1cc(F)c(-c2ccc(CCC(N)(CO)CO)c(F)c2)cc1C(=O)N[C@@H]1[C@H]2CC[C@H](C2)[C@@H]1C(=O)Nc1cccc(S(=O)(=O)C(F)(F)F)c1	µL/min/1e6 cells	9.4
COc1cc(F)c(O[C@H]2CC[C@@](C)(C(=O)O)CC2)cc1C(=O)Nc1cc(Cl)ccc1C(=O)NCC1(C)CCC1	µL/min/1e6 cells	11
COc1cc(F)c(O[C@H]2CC[C@@H](C(=O)O)CC2)cc1C(=O)N[C@@H]1[C@H]2CC[C@H](C2)[C@@H]1C(=O)Nc1cccc(S(=O)(=O)C(F)(F)F)c1	µL/min/1e6 cells	15
COc1cc(F)c(-c2ccc(C3(C(=O)O)CC3)cc2)cc1C(=O)N[C@H]1[C@@H](C(=O)Nc2cccc(S(=O)(=O)C(F)(F)F)c2)[C@@H]2C=C[C@H]1C2 (racemic)	µL/min/1e6 cells	5
COc1cc(F)c(-c2ncc(CCC(=O)O)s2)cc1C(=O)N[C@@H]1[C@H]2CC[C@H](C2)[C@@H]1C(=O)Nc1cccc(S(=O)(=O)C(F)(F)F)c1	µL/min/1e6 cells	26

I = COc1cc(C#N)c(O[C@H]2CC[C@@](C)(C(=O)O)CC2)cc1C(=O)N[C@@H]1[C@@H]2CC[C@@H](C2)[C@@H]1C(=O)NCC(C)(C)C(F)(F)F
II = COc1cc(F)c(O[C@H]2CC[C@@H](C(N)=O)CC2)cc1C(=O)N[C@H]1[C@@H](C(=O)Nc2ccc(F)c(C(F)(F)F)c2)[C@@H]2C=C[C@H]1C2
III = COc1cc(C#N)c(O[C@H]2CC[C@@](C)(C(=O)O)CC2)cc1C(=O)N[C@@H]1[C@@H]2CC[C@@H](C2)[C@@H]1C(=O)NCC1(C)CCC1
IV = COc1cc(F)c(O[C@H]2CC[C@@H](C(=O)O)CC2)cc1C(=O)N[C@@H]1[C@H]2CC[C@H](C2)[C@@H]1C(=O)Nc1ccc(F)c(S(F)(F)(F)(F)F)c1
V = COc1cc(F)c(-c2cccc(C(=O)O)c2)cc1C(=O)N[C@H]1[C@@H](C(=O)Nc2ccc(F)c(S(=O)(=O)C(F)(F)F)c2)[C@@H]2C=C[C@H]1C2 (racemic)
// ranking: key=hepatocyte CLint at 1 µM, reverse=True List the labels according to the requested ordering.
III, II, IV, V, I

I = COc1cc(F)c(O[C@H]2CC[C@@H](C(=O)O)CC2)cc1C(=O)NC1=C(C(=O)Nc2ccc(F)c(C(F)(F)F)c2)CCCC1
II = CCC1(CNC(=O)[C@H]2[C@@H]3CC[C@@H](C3)[C@H]2NC(=O)c2cc(O[C@H]3CC[C@@](C)(C(=O)O)CC3)c(F)cc2OC)CCC1
III = COc1cc(F)c(-c2ccc(CC(=O)O)cc2)cc1C(=O)N[C@H]1[C@@H](C(=O)Nc2cccc(S(=O)(=O)C(F)(F)F)c2)[C@@H]2C=C[C@H]1C2 (racemic)
Could you please order the items by hepatocyte CLint at 1 µM, going from the lowest number to the highest? List the labels according to the requested ordering.
I, III, II

Data provenance is patent US11667602B2.
